Ref: patent US20160362487A1

Listed here are binders together with their documented t½.
# Target entity: T1, human IL-33 (R&D Systems, #3625-IL-010/CF) (human, UniProt O95760 112-270)
# T1 construct: Commercial recombinant protein; also called hIL-33; interleukin-33
# T1 sequence (looked up): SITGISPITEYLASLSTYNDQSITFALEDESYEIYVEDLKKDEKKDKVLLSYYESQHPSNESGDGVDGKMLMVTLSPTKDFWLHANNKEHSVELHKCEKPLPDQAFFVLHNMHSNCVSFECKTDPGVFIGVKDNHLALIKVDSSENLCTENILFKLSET
# Test: SPR 25C, pH6.0 chase, mAb captured
# Method: Equilibrium dissociation constants (KD values) for IL-33 binding to purified anti-IL-33 monoclonal antibodies were determined using a real-time surface plasmon resonance biosensor using a Biacore 4000 instrument. […] Association of either hIL-33 or MfIL-33-6His to the captured monoclonal antibody was monitored for 4 minutes and their dissociation in ABS-ET running buffer was monitored for 10 minutes. […]
Readout: t½ (min)

* H4H9675P (antibody, human IgG4, V domains shown, Human IgG4 Fc (H4H)) VH: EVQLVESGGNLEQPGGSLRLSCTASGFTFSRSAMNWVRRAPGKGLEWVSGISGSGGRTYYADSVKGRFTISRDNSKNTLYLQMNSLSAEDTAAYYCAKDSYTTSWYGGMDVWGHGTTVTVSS VL: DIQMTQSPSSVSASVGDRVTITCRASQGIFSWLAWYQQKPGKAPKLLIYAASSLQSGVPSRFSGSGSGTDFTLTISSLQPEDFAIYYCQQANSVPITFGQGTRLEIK | 10
* H4H9676P (antibody, human IgG4, V domains shown, Human IgG4 Fc (H4H)) VH: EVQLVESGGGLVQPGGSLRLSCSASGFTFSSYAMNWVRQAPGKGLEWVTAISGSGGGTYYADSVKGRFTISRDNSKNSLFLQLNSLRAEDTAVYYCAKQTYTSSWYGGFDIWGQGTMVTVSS VL: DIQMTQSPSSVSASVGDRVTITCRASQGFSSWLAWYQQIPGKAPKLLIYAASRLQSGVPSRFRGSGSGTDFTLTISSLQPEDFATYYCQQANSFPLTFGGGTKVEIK | 10
* H1M9559N (antibody, mouse IgG1, V domains shown, Human variable domains, mouse IgG1 Fc (H1M)) VH: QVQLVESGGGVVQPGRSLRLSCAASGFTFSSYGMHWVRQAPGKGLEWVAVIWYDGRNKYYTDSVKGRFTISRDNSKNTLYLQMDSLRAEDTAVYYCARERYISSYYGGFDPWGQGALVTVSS VL: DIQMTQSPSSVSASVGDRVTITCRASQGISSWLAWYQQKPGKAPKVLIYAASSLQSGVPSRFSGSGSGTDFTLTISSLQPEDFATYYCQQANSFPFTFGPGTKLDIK | 62
* H1M9568N (antibody, mouse IgG1, V domains shown, Human variable domains, mouse IgG1 Fc (H1M)) VH: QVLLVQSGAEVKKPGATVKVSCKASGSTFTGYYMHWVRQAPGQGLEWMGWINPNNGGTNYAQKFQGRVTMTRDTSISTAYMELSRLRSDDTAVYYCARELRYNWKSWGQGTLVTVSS VL: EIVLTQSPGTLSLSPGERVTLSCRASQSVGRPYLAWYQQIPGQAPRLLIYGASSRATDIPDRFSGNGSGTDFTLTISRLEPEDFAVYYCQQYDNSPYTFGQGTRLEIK | 65
* H4H9660P (antibody, human IgG4, V domains shown, Human IgG4 Fc (H4H)) VH: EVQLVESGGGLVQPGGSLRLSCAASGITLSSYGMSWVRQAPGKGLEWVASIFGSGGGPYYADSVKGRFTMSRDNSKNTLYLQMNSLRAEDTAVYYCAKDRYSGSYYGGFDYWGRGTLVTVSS VL: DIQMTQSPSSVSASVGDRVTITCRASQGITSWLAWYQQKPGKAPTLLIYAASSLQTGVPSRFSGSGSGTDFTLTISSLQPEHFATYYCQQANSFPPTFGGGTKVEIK | 16
